From: ChEMBL document CHEMBL1156993

- protocol: Intrinsic clearance in rat hepatocytes assessed per 10^6 cells
Lab note: cut-off is 20 µL/min/1e6 cells. Strictly less in hepatocyte CLint is condition met. Exactly 20 µL/min/1e6 cells or more is condition not met.

Use these answered entries as a reference point.
CC(=O)N1CCCC1(Cc1ccc(C#N)cc1)C(=O)OCc1ccccc1 (stereo not drawn) : condition not met
CC(=O)N1CCCC1(Cc1ccc(S(C)(=O)=O)cc1)C(=O)OCc1ccccc1 (stereo in doubt; 13) : condition met
CS(=O)(=O)N1CCCC1(Cc1ccccc1)C(=O)OCc1ccccc1 (stereo not drawn) : condition not met
COc1ccc(CC2(C(=O)OCc3ccccc3)CCCN2C(C)=O)cc1 (stereo not drawn) : condition not met
CC(=O)N1CCCC1(Cc1cccc(S(C)(=O)=O)c1)C(=O)OCc1ccccc1 (stereo not drawn) : condition not met

Next molecule, please.
query: Here's an entry: CC(=O)N1CCCC1(Cc1ccccc1)C(=O)OCc1ccccc1 (racemic) . Is its hepatocyte CLint below 20 µL/min/1e6 cells?
result: condition not met

###

- system-under-test: UniProt P33261
- Sequence (P33261 whole entry): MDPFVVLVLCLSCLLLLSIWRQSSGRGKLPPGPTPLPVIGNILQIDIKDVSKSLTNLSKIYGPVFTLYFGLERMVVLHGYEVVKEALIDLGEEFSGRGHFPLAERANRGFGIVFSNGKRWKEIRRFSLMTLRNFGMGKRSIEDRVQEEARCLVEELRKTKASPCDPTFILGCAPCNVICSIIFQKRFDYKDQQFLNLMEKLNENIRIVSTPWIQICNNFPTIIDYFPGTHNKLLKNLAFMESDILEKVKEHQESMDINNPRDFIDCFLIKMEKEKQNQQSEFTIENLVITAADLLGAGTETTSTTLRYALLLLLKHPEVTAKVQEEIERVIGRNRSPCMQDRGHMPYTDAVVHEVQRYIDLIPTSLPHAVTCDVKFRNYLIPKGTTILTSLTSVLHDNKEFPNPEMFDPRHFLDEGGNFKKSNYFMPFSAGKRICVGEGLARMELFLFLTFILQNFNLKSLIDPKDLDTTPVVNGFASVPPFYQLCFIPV
- protocol: Inhibition of human CYP2C19 at 50 uM
- Format: ADME
recorded-metric: inhibition at 50 µM

query: Fill in reported inhibition at 50 µM for this entry: CC(=O)N1CCCC1(Cc1ccc(S(C)(=O)=O)cc1)C(=O)OCc1ccccc1 (stereo in doubt; 13)
result: < 30%

###

- protocol: Antagonist activity to dog NKCC1 transporter expressed in MDCK cells assessed as inhibition of Cl- free medium-stimulated Rb+ influx at 100 uM after 45 mins by atomic absorption spectroscopy
- Type: functional, Canis lupus familiaris
- recorded-conditions: Canis lupus familiaris, MDCK, 0.75 h
inhibition at 100 µM below 40% gives false; inhibition at 100 µM at or above it gives true.

As a guide, the following entries are already answered.
CC(=O)N1CCCC1(Cc1ccc(C#N)cc1)C(=O)OCc1ccccc1 (centres undefined) : false
CC(=O)N1CCCC1(Cc1cccc(S(C)(=O)=O)c1)C(=O)OCc1ccccc1 (centres undefined) : false
COc1ccc(CC2(C(=O)OCc3ccccc3)CCCN2C(C)=O)cc1 (centres undefined) : true
CC(=O)N1CCCC1(Cc1ccc(C(F)(F)F)cc1)C(=O)OCc1ccccc1 (centres undefined) : true
CS(=O)(=O)N1CCCC1(Cc1ccccc1)C(=O)OCc1ccccc1 (centres undefined) : false

query: Check if inhibition at 100 µM >= 40% (inclusive). Item: CC(=O)N1CCCC1(Cc1ccc(S(C)(=O)=O)cc1)C(=O)OCc1ccccc1 (stereo in doubt; 13)
result: false

query: Could you please find out whether CC(=O)N1CCCC1(Cc1ccc(F)c(C(F)(F)F)c1)C(=O)OCc1ccccc1 (centres undefined) has inhibition at 100 µM that meets 40% or exceeds it?
result: false

query: In plain terms: is recorded inhibition at 100 µM at least 40% for NS(=O)(=O)c1cc(C(=O)O)c(NCc2ccco2)cc1Cl [FUROSEMIDE] ?
result: true

###

Please go through the items and note down their log10 microsomal CLint.
- protocol: Intrinsic clearance in rat microsomes assessed per mg of protein
- Assay type: ADME, Microsome
Units before log transform: µL/min/mg; reported quantity: microsomal CLint; transform: log10.

COc1ccc(CC2(C(=O)OCc3ccccc3)CCCN2C(C)=O)cc1 (stereo not given) : 2.52
CC(=O)N1CCCC1(Cc1ccc(S(C)(=O)=O)cc1)C(=O)OCc1ccccc1 (stereo in doubt; 13) : 1.20

Look up log10 microsomal CLint for the entries below, preserving their order.
1. CC(=O)N1CCCC1(Cc1ccc(C#N)cc1)C(=O)OCc1ccccc1 (stereo not given)
2. CC(=O)N1CCCC1(CC1CCCCC1)C(=O)OCc1ccccc1 (stereo not given)
3. CC(=O)N1CCCC1(Cc1ccccc1)C(=O)OCc1ccccc1 (racemic)

result:
2.09
2.58
2.59

###

- system-under-test: UniProt:P08684
- Sequence (P08684 whole entry): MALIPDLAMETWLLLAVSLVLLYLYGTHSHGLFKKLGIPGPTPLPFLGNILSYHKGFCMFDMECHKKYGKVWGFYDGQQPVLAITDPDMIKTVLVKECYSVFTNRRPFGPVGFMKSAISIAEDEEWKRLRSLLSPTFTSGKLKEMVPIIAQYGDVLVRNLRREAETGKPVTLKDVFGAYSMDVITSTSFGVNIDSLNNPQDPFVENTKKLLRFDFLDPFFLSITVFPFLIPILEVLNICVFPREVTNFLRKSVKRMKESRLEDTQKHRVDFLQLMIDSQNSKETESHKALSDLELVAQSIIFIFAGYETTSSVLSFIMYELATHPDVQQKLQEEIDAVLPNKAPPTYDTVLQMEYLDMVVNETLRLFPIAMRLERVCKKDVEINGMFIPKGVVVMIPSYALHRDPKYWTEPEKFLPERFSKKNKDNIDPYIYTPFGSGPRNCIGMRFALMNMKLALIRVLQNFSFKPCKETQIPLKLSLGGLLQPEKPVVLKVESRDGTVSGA
- protocol: Inhibition of human CYP3A4 at 50 uM
- Format: ADME
recorded-metric: inhibition at 50 µM

query: Return the recorded inhibition at 50 µM value; entry: CC(=O)N1CCCC1(Cc1ccc(S(C)(=O)=O)cc1)C(=O)OCc1ccccc1 (stereo in doubt; 13)
result: < 30%

###

- protocol: Aqueous solubility in PBS buffer at pH 7.4
- Format: physicochemical
recorded-metric: solubility

Reference set (2 entries):
CS(=O)(=O)N1CCCC1(Cc1ccccc1)C(=O)OCc1ccccc1 (stereo not drawn) : 1 µg/mL
CC(=O)N1CCCC1(Cc1ccc(S(C)(=O)=O)cc1)C(=O)OCc1ccccc1 (stereo in doubt; 13) : 500 µg/mL

query: Give the reported value of solubility for this record: COc1ccc(CC2(C(=O)OCc3ccccc3)CCCN2C(C)=O)cc1 (stereo not drawn)
result: 10 µg/mL

###

- system-under-test: Solute carrier family 12 member 5 (Rattus norvegicus, UniProt Q63633)
- protocol: Antagonist activity of rat KCC2 transporter expressed in human SK-Hep cells assessed as inhibition of N-ethylmaleimide-mediated Rb+ influx after 10 mins by atomic absorption spectroscopy
recorded-metric: pIC50
One number for each entry, as −log10 of the molar value.

CCC1(C(=O)OCc2ccccc2)CCCN1C(C)=O (centres undefined) : 4.10

For every record below, what is its pIC50?
1. CC(=O)N1CCCC1(Cc1ccccc1)C(=O)OCCc1ccccc1 (centres undefined)
2. CC(=O)N1CCCC1(CCc1ccccc1)C(=O)OCc1ccccc1 (centres undefined)

result:
[5.00, 5.10]

###

What Cmax was measured for each of the following?
- protocol: Cmax in Wistar rat at 6 mg/kg, po
- Assay type: ADME, organism-based
- Design: dose 6 mg/kg, route oral
- recorded-conditions: in vivo
Answers are plain numbers, in ng/mL.

CC(=O)N1CCCC1(Cc1ccccc1)C(=O)OCc1ccccc1 (racemic) : 11.9

query: Give reported Cmax value for CC(=O)N1CCCC1(Cc1ccc(S(C)(=O)=O)cc1)C(=O)OCc1ccccc1 (stereo in doubt; 13)
result: 457

###

- system-under-test: CYP2C9 (Homo sapiens, UniProt P11712)
- Sequence (P11712 whole entry): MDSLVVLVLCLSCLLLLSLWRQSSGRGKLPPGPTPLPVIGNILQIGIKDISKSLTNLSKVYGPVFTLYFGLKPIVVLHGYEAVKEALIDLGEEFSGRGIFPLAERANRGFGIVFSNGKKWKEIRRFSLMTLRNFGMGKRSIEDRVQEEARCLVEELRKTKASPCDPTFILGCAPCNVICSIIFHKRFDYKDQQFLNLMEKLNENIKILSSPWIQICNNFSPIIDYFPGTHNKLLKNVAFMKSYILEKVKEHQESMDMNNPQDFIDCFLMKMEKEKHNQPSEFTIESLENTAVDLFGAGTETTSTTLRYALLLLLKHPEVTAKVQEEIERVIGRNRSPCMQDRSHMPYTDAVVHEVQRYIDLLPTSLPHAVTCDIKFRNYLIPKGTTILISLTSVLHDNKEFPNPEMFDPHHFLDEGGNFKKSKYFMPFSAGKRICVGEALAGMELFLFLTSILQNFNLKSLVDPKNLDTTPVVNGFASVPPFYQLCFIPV
- protocol: Inhibition of human CYP2C9 at 50 uM
- Type: ADME
recorded-metric: inhibition at 50 µM

query: Fill in inhibition at 50 µM for record CC(=O)N1CCCC1(Cc1ccc(S(C)(=O)=O)cc1)C(=O)OCc1ccccc1 (stereo in doubt; 13)
result: < 30%

###

For each record, write down the corresponding pIC50.
- system-under-test: Solute carrier family 12 member 5 (Rattus norvegicus, UniProt Q63633)
- Sequence (Q63633 whole entry): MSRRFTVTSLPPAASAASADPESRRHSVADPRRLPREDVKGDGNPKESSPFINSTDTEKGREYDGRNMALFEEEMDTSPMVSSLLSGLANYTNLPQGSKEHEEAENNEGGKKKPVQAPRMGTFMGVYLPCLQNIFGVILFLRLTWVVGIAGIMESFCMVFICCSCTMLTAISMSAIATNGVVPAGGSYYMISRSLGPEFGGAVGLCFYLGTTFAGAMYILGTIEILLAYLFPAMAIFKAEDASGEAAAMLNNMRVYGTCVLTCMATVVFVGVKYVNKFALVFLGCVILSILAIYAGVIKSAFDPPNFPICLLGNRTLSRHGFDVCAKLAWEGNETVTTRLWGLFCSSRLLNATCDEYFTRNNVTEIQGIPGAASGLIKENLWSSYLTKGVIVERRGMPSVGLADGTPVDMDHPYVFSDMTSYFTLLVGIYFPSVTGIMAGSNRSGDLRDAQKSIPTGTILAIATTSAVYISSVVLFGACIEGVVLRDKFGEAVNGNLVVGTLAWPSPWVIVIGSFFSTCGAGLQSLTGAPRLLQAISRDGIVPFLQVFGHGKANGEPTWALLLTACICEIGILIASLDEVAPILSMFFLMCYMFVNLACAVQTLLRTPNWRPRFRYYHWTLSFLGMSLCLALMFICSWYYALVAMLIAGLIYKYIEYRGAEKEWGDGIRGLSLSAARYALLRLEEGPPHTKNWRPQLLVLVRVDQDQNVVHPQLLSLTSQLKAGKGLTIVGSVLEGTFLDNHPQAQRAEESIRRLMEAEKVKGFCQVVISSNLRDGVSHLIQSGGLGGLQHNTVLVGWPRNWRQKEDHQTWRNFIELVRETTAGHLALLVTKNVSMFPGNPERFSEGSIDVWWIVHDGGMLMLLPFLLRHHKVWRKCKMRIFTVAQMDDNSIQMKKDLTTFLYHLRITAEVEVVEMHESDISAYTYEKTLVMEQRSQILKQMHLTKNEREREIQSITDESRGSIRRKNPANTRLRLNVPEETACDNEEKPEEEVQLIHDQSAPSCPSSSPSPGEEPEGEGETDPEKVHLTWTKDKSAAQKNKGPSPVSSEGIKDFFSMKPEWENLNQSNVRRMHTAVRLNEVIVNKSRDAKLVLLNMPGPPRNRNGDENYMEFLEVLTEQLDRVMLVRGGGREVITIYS
- protocol: Antagonist activity of rat KCC2 transporter expressed in human SK-Hep cells assessed as inhibition of N-ethylmaleimide-mediated Rb+ influx after 10 mins by atomic absorption spectroscopy
Numbers only, as −log10 of the molar value.

CC(=O)N1CCCC1(Cc1ccc(Cl)cc1)C(=O)OCc1ccccc1 (configuration not stated) : 6.49

Provide reported pIC50 for each item, in the same order as listed.
1. COc1ccc(CC2(C(=O)OCc3ccccc3)CCCN2C(C)=O)cc1C(F)(F)F (configuration not stated)
2. CC(=O)N1CCCC1(Cc1ccccc1)C(=O)OCc1ccc(C(F)(F)F)cc1 (configuration not stated)
3. CC(=O)N1CCCC1(Cc1ccccc1)C(=O)N(C)Cc1ccccc1 (configuration not stated)

result:
7.30
5.30
4.49

Hi team, please reply with pIC50 for each item in this list.
1. CC(=O)N1CCCC1(Cc1ccccc1)C(=O)OCC1CCCCC1 (configuration not stated)
2. CC(=O)N1CCCC1(Cc1ccc(C#N)cc1)C(=O)OCc1ccccc1 (configuration not stated)
3. CC(=O)N1CCCC1(Cc1ccccc1)C(=O)OCc1ccccc1 (racemic)
4. COc1ccc(CC2(C(=O)OCc3ccccc3)CCCN2C(C)=O)cc1 (configuration not stated)

result:
1. 4.20
2. 6.80
3. 6.10
4. 6.40

Below are 5 molecules. Give each one its pIC50.
1. O=C(C1CC1)N1CCCC1(Cc1ccccc1)C(=O)OCc1ccccc1 (configuration not stated)
2. CCC(=O)N1CCCC1(Cc1ccccc1)C(=O)OCc1ccccc1 (configuration not stated)
3. CC(=O)N1CCCC1(Cc1ccccc1)C(=O)OCc1ccccc1Cl (configuration not stated)
4. CC(=O)N1CCCC1(Cc1ccc(F)cc1)C(=O)OCc1ccccc1 (configuration not stated)
5. COC(=O)N1CCCC1(Cc1ccccc1)C(=O)OCc1ccccc1 (configuration not stated)

result:
6.49
5.92
5.22
6.70
6.40

Dear reader, for each entry below, please note its pIC50.
1. CC(=O)N1CCCC1(Cc1ccccc1)C(=O)OCc1ccccc1 (single isomer, unassigned; (+))
2. CC(=O)N1CCCC1(Cc1ccccc1)C(=O)OCc1ccc(Cl)cc1 (configuration not stated)
3. CC(=O)N1CCCC1(Cc1ccc(C(F)(F)F)cc1)C(=O)OCc1ccccc1 (configuration not stated)
4. CC(=O)N1CCCC1(Cc1ccc(F)cc1C(F)(F)F)C(=O)OCc1ccccc1 (configuration not stated)

result:
1: 6.49; 2: 5.89; 3: 6.20; 4: 5.40

Quick batch: pIC50 for everything below.
1. CC(=O)N1CCCC1(Cc1ccccc1)C(=O)OCc1ccc(C)cc1 (configuration not stated)
2. CS(=O)(=O)N1CCCC1(Cc1ccccc1)C(=O)OCc1ccccc1 (configuration not stated)
3. CC(=O)N1CCCC1(Cc1cccc(C(F)(F)F)c1)C(=O)OCc1ccccc1 (configuration not stated)
4. CC(=O)N1CCCC1(Cc1ccccc1C#N)C(=O)OCc1ccccc1 (configuration not stated)
5. O=C(c1ccccc1)N1CCCC1(Cc1ccccc1)C(=O)OCc1ccccc1 (configuration not stated)

result:
[6.10, 5.80, 7.10, 5.30, 5.40]

Answer for every listed entry: what is its pIC50? The entries follow.
1. CC(=O)N1CCCC1(Cc1cccc(C#N)c1)C(=O)OCc1ccccc1 (configuration not stated)
2. CC(=O)N1CCCC1(CC1CCCCC1)C(=O)OCc1ccccc1 (configuration not stated)
3. CC(=O)N1CCCC1(Cc1ccccc1)C(=O)OCc1cccc(Cl)c1 (configuration not stated)
4. CC(=O)N1CCCC1(Cc1ccccc1)C(=O)OCc1ccccc1 (single isomer, unassigned; (-))

result:
1. 6.49
2. 6.00
3. 5.60
4. 4.30

Each molecule below has a reported value. Please supply its pIC50.
1. CC(=O)N1CCCC1(Cc1ccc(S(C)(=O)=O)cc1)C(=O)OCc1ccccc1 (stereo in doubt; 13)
2. CC(=O)N1CCCC1(Cc1ccccc1)C(=O)OC(C)c1ccccc1 (configuration not stated)
3. CC(=O)N1CCCC1(Cc1ccc(S(C)(=O)=O)cc1)C(=O)OCc1ccccc1 (single isomer, unassigned; (+))
4. CC(=O)N1CCCC1(Cc1ccsc1)C(=O)OCc1ccccc1 (configuration not stated)

result:
6.00
5.40
6.40
6.10

Hi there! I need pIC50 for each item below, if you can.
1. CCNC(=O)N1CCCC1(Cc1ccccc1)C(=O)OCc1ccccc1 (configuration not stated)
2. CC(=O)N1CCCC1(Cc1ccncc1)C(=O)OCc1ccccc1 (configuration not stated)
3. CC(=O)N1CCCC1(Cc1ccc(F)c(C(F)(F)F)c1)C(=O)OCc1ccccc1 (configuration not stated)

result:
[5.70, 5.70, 7.22]
